pIC50: −log10 of the molar value.
Literature survey of pIC50 (system: Proto-oncogene tyrosine-protein kinase Src (Homo sapiens, UniProt P12931)).

Would you please look over these solved cases?
molecule: O=C(Oc1cc(O)c2c(c1)OC(c1ccc(O)c(O)c1)C(O)C2)c1cc(O)c(O)c(O)c1 (stereo not shown)
pIC50: ~6.30

molecule: O=C(Nc1ccc(-c2ccc(NC(=O)C3CC3)nc2)cc1)Nc1cccc(C(F)(F)F)c1
pIC50: < 6.30

molecule: Cc1cc2c(cc1C)[n+](Cc1ccccc1Br)cn2Cc1ccc2c(c1)CCO2.[Br-]
pIC50: < 3.30

Reported pIC50, molecule COc1cc(F)cc(-c2ccc3c(NC(=O)c4ccc(N5CCC(N(C)C)CC5)cc4)n[nH]c3c2)c1 : ____
< 7.00
